- Study system: recombinant human CK2 (RRββ-holoenzyme) (Homo sapiens)
- Sequence (P68400 whole entry): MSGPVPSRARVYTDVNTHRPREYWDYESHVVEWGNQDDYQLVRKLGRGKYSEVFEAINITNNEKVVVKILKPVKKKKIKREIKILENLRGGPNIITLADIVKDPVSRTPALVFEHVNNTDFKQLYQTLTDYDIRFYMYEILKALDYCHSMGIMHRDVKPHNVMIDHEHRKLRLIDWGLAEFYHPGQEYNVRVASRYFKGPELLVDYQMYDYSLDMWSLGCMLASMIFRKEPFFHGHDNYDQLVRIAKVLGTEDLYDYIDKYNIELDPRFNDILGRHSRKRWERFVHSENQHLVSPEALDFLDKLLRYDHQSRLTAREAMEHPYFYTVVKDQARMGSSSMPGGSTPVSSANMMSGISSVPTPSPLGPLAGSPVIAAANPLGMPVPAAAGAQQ
- Sequence (P67870 whole entry partner): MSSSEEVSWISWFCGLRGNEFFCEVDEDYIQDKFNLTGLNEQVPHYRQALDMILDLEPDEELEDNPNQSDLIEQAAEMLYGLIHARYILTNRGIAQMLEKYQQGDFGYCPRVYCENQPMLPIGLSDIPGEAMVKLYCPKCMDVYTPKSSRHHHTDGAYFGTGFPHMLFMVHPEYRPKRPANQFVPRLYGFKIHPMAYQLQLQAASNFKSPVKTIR
- Assay protocol: CK2 Kinase Assay (33P-ATP, filter plate)
- Particulars: final ATP concentration 15 μM; 10 min at 30° C.; read-out: protein kinase CK2 IC50
Recorded endpoint: IC50 (nM)
Response body: numeric value in nM, unit text excluded.

Q. Determine its reported IC50: Clc1cccc(Nc2nc3cnccc3c3c2[nH]c2cnccc23)c1 [Compound 1]
A. 295

====

- Test system: H1299 (lung)
- Assay protocol: In vitro cytotoxic activity (MTT) assay, H1299
- Assay type: cell-based
- Particulars: Homo sapiens, NCI-H1299; cells exposed for 96 hours; 50% inhibition of cell proliferation; read-out: Cytotoxicity activity IC50, H1299 (lung)
Recorded endpoint: IC50
Put your answer as a value accompanied by its unit after it.

Q. Consider the compound Clc1cccc(Nc2nc3cnccc3c3c2[nH]c2cnccc23)c1 [Compound 1] and give its recorded IC50.
A. 1600 nM

====

- Test system: MCF7 (breast)
- Assay protocol: In vitro cytotoxic activity (MTT) assay, MCF7
- Assay type: cell-based
- Particulars: Homo sapiens, cells exposed for 96 hours, 50% inhibition of cell proliferation, read-out: Cytotoxicity activity IC50, MCF7 (breast)
Recorded endpoint: pIC50
pIC50 field: float, defined as -log10 of concentration (mol/L).

Q. Return reported pIC50 for target or system MCF7 (breast), item Clc1cccc(Nc2nc3cnccc3c3c2[nH]c2cnccc23)c1 .
A. 5.31

====

- Test system: MIAPaCa-2 (pancreas)
- Assay protocol: In vitro cytotoxic activity (MTT) assay, MIAPaCa-2
- Assay type: cell-based
- Particulars: Homo sapiens, MIA PaCa-2; cells exposed for 96 hours; 50% inhibition of cell proliferation; read-out: Cytotoxicity activity IC50, MIAPaCa-2 (pancreas)
- Excerpt: Compounds 1-16 were screened for their in vitro cytotoxic activity utilizing a 3-(4,5-dimethyl-thiazol-2-yl)-2,5-diphenyltetrazolium bromide (MTT) assay against selected cancer human cell lines consisting of PC3 (prostate), HCT116 (colon), A375 (melanoma), H1299 (lung), MIAPaCa-2 (pancreas), HL60 (leukemia), MCF7 (breast), MDA-MB-231 (breast) (T. Mosmann, J. Immunol. Meth., 1983, 65, 55-63). […]
Recorded endpoint: pIC50
Lab note: report pIC50 as minus log10 of the concentration in molar units, number only.

Q. Using known records, supply pIC50 for Clc1cccc(Nc2nc3cnccc3c3c2[nH]c2cnccc23)c1
A. 5.55
